Source: patent US20260042764A1

# EXPERIMENTAL_SYSTEM: Avi-KRAS G12V (2-169) GTP/RAF1 RBD-3xFLAG (51-131) (Homo sapiens, UniProt P01116, G12V)
# Construct: Avi-KRAS G12V (2-169)
# Sequence (P01116 2-169 isoform P01116-2 G12V): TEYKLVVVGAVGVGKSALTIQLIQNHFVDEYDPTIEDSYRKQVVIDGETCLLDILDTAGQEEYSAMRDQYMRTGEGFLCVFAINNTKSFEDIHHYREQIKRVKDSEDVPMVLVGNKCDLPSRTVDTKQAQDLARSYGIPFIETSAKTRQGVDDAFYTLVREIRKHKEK
# MEASUREMENT_DESCRIPTION: Raf1-KRAS G12V-GTP disruption HTRF assay (Biological Example 3)
# Format: binding
# SETTINGS: KRAS G12V, GTP-loaded
pIC50: −log10 of the molar value.
READOUT_LABEL: pIC50

Reading of pIC50 for CCN(c1nc(OC[C@@]23CCCN2C[C@H](F)C3)nc2c(F)c(-c3ccc(F)c4sc(N)c(C#N)c34)c(C(F)(F)F)cc12)[C@H]1CCN(C(=O)c2cocn2)[C@@H]1C (atropisomer, axis not shown) with Avi-KRAS G12V (2-169) GTP/RAF1 RBD-3xFLAG (51-131) (Homo sapiens, UniProt P01116, G12V): 6.00 to 7.00

Entry CCN(c1nc(OC[C@@]23CCCN2C[C@H](F)C3)nc2c(F)c(-c3ccc(F)c4sc(N)c(C#N)c34)c(C(F)(F)F)cc12)[C@H]1C[C@H](COC)N(C(=O)[C@H]2CCO2)C1 (atropisomer, axis not shown) under Avi-KRAS G12V (2-169) GTP/RAF1 RBD-3xFLAG (51-131) (Homo sapiens, UniProt P01116, G12V) had pIC50 of 6.00 to 7.00

Form field, pIC50 with Avi-KRAS G12V (2-169) GTP/RAF1 RBD-3xFLAG (51-131) (Homo sapiens, UniProt P01116, G12V), item CCN(c1nc(OC[C@]23CCCN2C[C@H](F)C3)nc2c(F)c(-c3ccc(F)c4sc(N)c(C#N)c34)c(C(F)(F)F)cc12)[C@H]1CCN(C(=O)OC)C1 (atropisomer, axis not shown) [Compound 955] : < 5.00

Let me check: CO[C@H](C)C(=O)N1CC[C@H](N(c2nc(OC[C@@]34CCCN3C[C@H](F)C4)nc3c(F)c(-c4ccc(F)c5sc(N)c(C#N)c45)c(C(F)(F)F)cc23)C2CC2)C1 (atropisomer, axis not shown) , system Avi-KRAS G12V (2-169) GTP/RAF1 RBD-3xFLAG (51-131) (Homo sapiens, UniProt P01116, G12V), measured pIC50 is 5.00 to 6.00

###

# EXPERIMENTAL_SYSTEM: Avi-KRAS G12R (1-169) GppNHp/RAF1 RBD-3xFLAG (52-151) (Homo sapiens, UniProt P01116, G12R)
# Construct: Avi-KRAS G12R (1-169)
# Sequence (P01116 1-169 isoform P01116-2 G12R): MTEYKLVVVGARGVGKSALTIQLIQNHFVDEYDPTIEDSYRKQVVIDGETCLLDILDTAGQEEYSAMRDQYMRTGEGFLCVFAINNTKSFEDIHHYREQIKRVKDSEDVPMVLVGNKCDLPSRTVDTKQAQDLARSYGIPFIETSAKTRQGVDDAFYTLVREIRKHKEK
# MEASUREMENT_DESCRIPTION: Raf1-KRAS G12R-GppNHP disruption HTRF assay (Biological Example 1)
# Type: binding
# SETTINGS: KRAS G12R-GppNHp/RAF1 RBD HTRF
READOUT_LABEL: IC50

Reported IC50 of N#Cc1c(N)sc2c(F)ccc(-c3c(Cl)cc4c(N5C[C@H]6C[C@@H]5CO6)nc(OC[C@@]56CCCN5C[C@H](F)C6)nc4c3F)c12 : 1000 to 10000 nM

Measured IC50, CCN(c1nc(OC[C@@]23CCCN2C[C@H](F)C3)nc2c(F)c(-c3ccc(F)c4sc(N)c(C#N)c34)c(C(F)(F)F)cc12)[C@H]1C[C@H](C)N(C(=O)C2COC2)C1 (atropisomer, axis not shown) : < 100 nM

Record summary for N#Cc1c(N)sc2c(F)ccc(-c3c(C(F)(F)F)cc4c(N5CCCC[C@H](O)C5)nc(OC[C@@]56CCCN5C[C@H](F)C6)nc4c3F)c12 : reported IC50 = 100 to 1000 nM

Given item CCN(c1nc(OC[C@@]23CCCN2C[C@H](F)C3)nc2c(F)c(-c3ccc(F)c4sc(N)c(C#N)c34)c(C(F)(F)F)cc12)[C@H]1CCN(C(=O)C2CC2)C1 , the value recorded as its IC50 is < 100 nM

response.value for CCN1C[C@@H](N(CC)c2nc(OC[C@@]34CCCN3C[C@H](F)C4)nc3c(F)c(-c4ccc(F)c5sc(N)c(C#N)c45)c(C(F)(F)F)cc23)CC1=O (field: IC50) = < 100 nM

Entry CC(=O)N1CCC[C@H](N(C)c2nc(OC[C@@]34CCCN3C[C@H](F)C4)nc3c(F)c(-c4ccc(F)c5sc(N)c(C#N)c45)c(C(F)(F)F)cc23)C1 — recorded IC50 = 100 to 1000 nM

Reported IC50 ( CC(=O)N1CC[C@@H]2[C@H]1CN2c1nc(OC[C@@]23CCCN2C[C@H](F)C3)nc2c(F)c(-c3ccc(F)c4sc(N)c(C#N)c34)c(C(F)(F)F)cc12 ) = 100 to 1000 nM

response.value for N#Cc1c(N)sc2c(F)ccc(-c3c(C(F)(F)F)cc4c(N5C[C@@H]6[C@H]5CCN6C(=O)C5CC5)nc(OC[C@@]56CCCN5C[C@H](F)C6)nc4c3F)c12 (field: IC50) = 1000 to 10000 nM

Record CCN(c1nc(OC[C@@]23CCCN2C[C@H](F)C3)nc2c(F)c(-c3ccc(F)c4sc(N)c(C#N)c34)c(C(F)(F)F)cc12)[C@@H]1CCS(=O)(=O)C1 . Reported IC50: 100 to 1000 nM

Short answer for CCN(c1nc(OC[C@@]23CCCN2C[C@H](F)C3)nc2c(F)c(-c3ccc(F)c4sc(N)c(C#N)c34)c(C(F)(F)F)cc12)[C@H]1C[C@H](C)N(C(=O)N(C)C)C1 (atropisomer, axis not shown) : IC50 was < 100 nM
